Where these numbers come from: ChEMBL document CHEMBL1145161

Target: Trypanothione reductase (Trypanosoma cruzi)
Assay: Inhibitory constant against recombinant Trypanosoma cruzi trypanothione reductase was determined photometrically at 25 degree C in TR assay buffer (40 mM Hepes, 1 mM EDTA, pH 7.5)
measure: Ki' (µM)

COc1cc(C(=N)Nc2ccc(Oc3ccc(NC(=N)c4ccc(OCc5ccccc5)c(OC)c4)cc3)cc2)ccc1OCc1ccccc1 ... 22

a = COc1cc(C(=N)NC2CCC(CC3CCC(/N=C(\N)c4ccc(OCc5ccccc5)c(OC)c4)CC3)CC2)ccc1OCc1ccccc1 (centres undefined)
b = O=C(Cc1cccc2ccccc12)NCCNC(=O)C1(NC(=O)C(=O)c2ccc([N+](=O)[O-])cc2)CCNCC1
c = COc1cc(C(=N)NCCCCCCCCN=C(N)c2ccc(OCc3ccccc3)c(OC)c2)ccc1OCc1ccccc1
Q) List the 3 entries from lowest Ki' to highest Ki' value. When ranking, write the labels in the order the request describes.
A) b, a, c
